Test system: PC3 cells
Assay: PC3 cytotoxicity / proliferation, MTS assay
Type: cell-based, human
Details: read-out: IC50 for PC3 cells, 48 h, mean ± SEM, at least 3 experiments
OBSERVATION_TYPE: IC50

Value sought: IC50, system PC3 cells, item COc1ccc(C=C2C(=O)NC(=O)N2Cc2ccccc2)cc1 (mixture of isomers) [27c-2] . Result: > 100 µM

Reference source: paper PMC5404933
